# study-target: soybean lipoxygenase (sLOX) (Glycine max)
# Sequence (P08170 whole entry): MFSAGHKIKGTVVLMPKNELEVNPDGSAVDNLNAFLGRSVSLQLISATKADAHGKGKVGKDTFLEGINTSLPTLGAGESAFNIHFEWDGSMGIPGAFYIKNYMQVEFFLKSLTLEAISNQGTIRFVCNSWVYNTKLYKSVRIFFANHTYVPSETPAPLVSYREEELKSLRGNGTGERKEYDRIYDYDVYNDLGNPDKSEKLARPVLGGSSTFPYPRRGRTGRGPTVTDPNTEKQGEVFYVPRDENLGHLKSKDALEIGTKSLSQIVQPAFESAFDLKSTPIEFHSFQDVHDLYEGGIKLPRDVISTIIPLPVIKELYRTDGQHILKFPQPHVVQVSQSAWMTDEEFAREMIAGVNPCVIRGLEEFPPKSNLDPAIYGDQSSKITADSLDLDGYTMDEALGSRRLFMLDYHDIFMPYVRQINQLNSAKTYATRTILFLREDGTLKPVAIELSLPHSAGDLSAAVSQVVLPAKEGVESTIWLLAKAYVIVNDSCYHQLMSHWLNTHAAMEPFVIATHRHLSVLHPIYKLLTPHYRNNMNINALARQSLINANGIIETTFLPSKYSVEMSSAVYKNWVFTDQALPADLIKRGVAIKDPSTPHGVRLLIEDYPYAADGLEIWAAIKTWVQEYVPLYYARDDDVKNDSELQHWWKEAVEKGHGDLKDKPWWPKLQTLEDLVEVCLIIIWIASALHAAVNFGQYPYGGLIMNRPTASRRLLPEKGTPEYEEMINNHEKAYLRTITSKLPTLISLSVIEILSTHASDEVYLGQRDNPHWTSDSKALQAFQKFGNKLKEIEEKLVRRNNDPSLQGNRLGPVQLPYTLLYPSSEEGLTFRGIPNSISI
property-label: pIC50
pIC50 is a log-scale quantity: -log10 of the concentration expressed in molar.

Fill in pIC50 for record O=c1cc(OCc2cc(-c3ccncc3)no2)c2ccccc2o1 [13a] 5.30
